Hello, the source for this data is PubChem BioAssay (NCI), in case you need it.

# Test system: NCI-H460 lung
# test-summary: NCI tumour cell line growth inhibition, 48 h
Entries annotated with measured TGI

compound: C1=CCN(c2ccccc2)CC1
TGI: > 100 µM
//
compound: C[C@]12CC[C@H]3[C@@H](CC=C4C[C@@H](O)CC[C@@]43C)[C@@H]1C/C(=C\c1cccc(OCCN3CCOCC3)c1)[C@@H]2O
TGI: > 100 µM
//
compound: CCOC(=O)[C@H]1C[C@@H](C(=O)c2ccccc2)N2N=C(c3ccc(Br)cc3)C=C[C@H]12
TGI: > 100 µM

Answer with the recorded TGI of COc1ccc(-c2ccc(/C=N/n3cn[nH]c3=S)o2)c([N+](=O)[O-])c1 only. > 100 µM

Answer with the recorded TGI of CSc1nc(=S)[nH]c2n[nH]c(C)c12 only. > 100 µM

Answer with the recorded TGI of CCCCCC(=O)N1c2ccccc2NC2=C(C(=O)CC(c3ccc(OC)c(OC)c3)C2)C1c1ccc(C(F)(F)F)cc1 (centres undefined) only. > 100 µM

Answer with the recorded TGI of N#Cc1cnn2c1n[n+]([O-])c1ccc(Cl)cc12 only. 26.5 µM

Answer with the recorded TGI of CCN(CC)c1ccc(/C=C/C2=NN(c3cccc(S(=O)(=O)O)c3)C3(C2)C(Cl)C(=O)N3c2nc3ccccc3s2)cc1 (centres undefined) only. 25.8 µM

Answer with the recorded TGI of COc1cc2c(/C=C3/C(=O)Nc4ccccc43)c(Cl)n(Cc3ccccc3)c2cc1C only. > 100 µM

###

Entries annotated with measured log10 of TGI
# System: OVCAR-5 ovarian
# test-summary: NCI tumour cell line growth inhibition, 48 h
Answers are given as log10 of TGI in µM.

test-smiles: C#Cc1cccc(NC(=O)Nc2ccc(NC(=O)CCl)cc2)c1
observed-result: 1.45
--
test-smiles: O=C1C(NCCc2cc(Br)c(O)c(Br)c2)=CC(=O)c2ncccc21
observed-result: 1.31
--
test-smiles: Cn1c2ccccc2c2c(=O)n(CCCC(=O)NCC(=O)OC(=NC3CCCCC3)NC3CCCCC3)c3c(-c4ccccc4)nnn3c21
observed-result: 1.51
--
test-smiles: CC[C@@]1(O)C(=O)OCc2c1c(Cl)c1n(c2=O)Cc2cc3ccccc3nc2-1
observed-result: 1.93

Attention now shifts to the item below.
Answer with the recorded log10 of TGI of Cc1sc2ncnc(NCCc3ccccc3)c2c1C only. 1.55

###

# Test system: OVCAR-3 ovarian
# test-summary: NCI tumour cell line growth inhibition, 48 h
measured-quantity: log10(TGI) (log10 of the value in µM)
Answers are given as log10 of TGI in µM.

compound: CC1(C)CCSC(/C=C/c2ccccc2)=N1
log10(TGI): 1.45
--
compound: Cn1c2ccccc2c2c(=O)n(CCCC(=O)NCC(=O)OC(=NC3CCCCC3)NC3CCCCC3)c3c(-c4ccccc4)nnn3c21
log10(TGI): 1.98
--
compound: c1ccc(-c2nc(Nc3ccc(-c4nc5ccccc5[nH]4)cc3)nc(N3CCOCC3)n2)cc1
log10(TGI): 0.47
--
compound: COC(=O)c1c2c(c(C)[n+]([O-])c1C)C(=O)C=C(NCc1ccc(Cl)cc1)C2=O
log10(TGI): -0.20
--
compound: CC(C)(C)Cn1c(N)nc2ccc(-c3[nH]c(C(C)(C)C)nc3-c3ccc(F)cc3)nc21
log10(TGI): 1.37
--
compound: N#Cc1nc(-c2cccc(Br)c2)cc(-c2ccc(Nc3nc(N4CCCCC4)nc(N4CCCCC4)n3)cc2)c1N
log10(TGI): 0.55
--
compound: COc1n[n+]([O-])c(C)cc1[N+](=O)[O-]
log10(TGI): 1.45
--
compound: C/C(C=O)=N\Nc1cc(C)c2ccccc2n1
log10(TGI): 1.46
--
compound: OCCNc1nc(NCCO)nc(Nc2ccc(C3=NN(c4cc(Cl)cc(Cl)c4)C(c4ccc(Cl)cc4)C3)cc2)n1 (stereo not given)
log10(TGI): 0.50
--
compound: CC1CCC2(OC1)OC1CC3C4CC=C5CC(OC6OC(CO)C(OC7OC(C)C(OC8OC(C)C(O)C(O)C8O)C(O)C7O)C(O)C6OC6OC(C)C(O)C(O)C6O)CCC5(C)C4CCC3(C)C1C2C (stereo not given)
log10(TGI): 0.52

Answer with the recorded log10(TGI) of CCOP(=O)(CS(C)=O)O[C@@H]1C[C@H](C)CC[C@H]1C(C)C (stereo not given in full) only. 1.20

Answer with the recorded log10(TGI) of N#Cc1cnn2c1n[n+]([O-])c1ccc(Cl)cc12 only. 0.96

Answer with the recorded log10(TGI) of CCOC(=O)c1cc2c(cc1Cl)SC(N(c1ccc(F)cc1)S(=O)(=O)c1ccc(OC)cc1)=NS2(=O)=O only. 1.45

Answer with the recorded log10(TGI) of COc1ccc(C2CC(=O)Nc3c2c(C)nn3-c2nc3ccccc3[nH]2)cc1 (stereo not given) only. 0.76

Answer with the recorded log10(TGI) of NN/C(=N\S(=O)(=O)c1cc(Cl)c(Oc2ccc([N+](=O)[O-])cc2Cl)c(Cl)c1)Nc1ccc(Cl)cc1 only. 1.52

Answer with the recorded log10(TGI) of CN1C(c2ccccc2)CC(=Nc2ccccc2)CC1c1ccccc1 (stereo not given) only. 1.38

Answer with the recorded log10(TGI) of CC[C@@]1(O)C(=O)OCc2c1c(Cl)c1n(c2=O)Cc2cc3ccccc3nc2-1 only. 1.34
